Tested on: hematological tumor cell lines
run_description: 3-day proliferation assay (CellTiter-Glo)
Assay type: cell-based, human
applied_conditions: Homo sapiens, HT, HT cell line; Burkitt's Lymphoma; B Cell
Protocol: Various tumor cell lines were obtained from different sources including; the American Type Cell Culture Collection, the Developmental Therapeutics Program, the National Cancer Institute, the German Resource Center for Biological Material and the European Collection of Animal Cell Cultures. […] Cell growth was determined relative to untreated (DMSO) controls. EC50's were calculated from inhibition curves using a 4- or 6-parameter fitting algorithm in the Assay Client application.
result_type: pIC50
Hey, just a heads up that pIC50 is the negative log base 10 of the concentration in molar.

Cn1ncc(Cl)c1-c1cc(C(=O)N[C@H](CN)Cc2ccc(F)c(F)c2)oc1Cl = 7.03

Now look at this one.
Write pIC50 of Cn1ncc(Cl)c1-c1cc(C(=O)N[C@H](CN)Cc2cccc(F)c2)sc1Cl ; system used: hematological tumor cell lines 6.69
